This collection of values is drawn from patent US20250084155A1.

# assayedSystem: T1, HSP70 (human HSP70; the antigen of the binning, humanization and variant binding assays) (human, UniProt P0DMV8 1-641, limits assumed)
# T1 construct: also called hu HSP70
# T1 sequence (P0DMV8 whole entry, change not shown): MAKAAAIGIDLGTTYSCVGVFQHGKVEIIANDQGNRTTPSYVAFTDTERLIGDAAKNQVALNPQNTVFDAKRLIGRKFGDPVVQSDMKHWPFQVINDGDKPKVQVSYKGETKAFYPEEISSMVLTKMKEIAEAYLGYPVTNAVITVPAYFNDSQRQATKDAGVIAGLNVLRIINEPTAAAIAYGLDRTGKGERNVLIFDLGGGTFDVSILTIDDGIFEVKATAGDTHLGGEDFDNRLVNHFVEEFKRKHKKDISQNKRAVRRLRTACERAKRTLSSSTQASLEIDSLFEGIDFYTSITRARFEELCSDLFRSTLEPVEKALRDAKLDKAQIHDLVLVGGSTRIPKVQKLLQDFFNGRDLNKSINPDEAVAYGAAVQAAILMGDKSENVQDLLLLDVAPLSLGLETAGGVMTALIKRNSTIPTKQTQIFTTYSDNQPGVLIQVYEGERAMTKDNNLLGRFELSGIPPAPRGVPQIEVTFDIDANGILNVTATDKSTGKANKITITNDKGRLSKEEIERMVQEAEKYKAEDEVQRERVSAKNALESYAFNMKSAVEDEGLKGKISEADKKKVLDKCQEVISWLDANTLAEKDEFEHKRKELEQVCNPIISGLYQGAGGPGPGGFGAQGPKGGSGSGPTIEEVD
# testDetails: BLI, antibody on sensor
measureName: kon (M⁻¹ s⁻¹)
One number for each entry, in M⁻¹ s⁻¹.

These recorded examples may help you get a feel for the data.
>>> testvalue("77A antibody (clone 77A, murine anti-HSP70 monoclonal antibody) (antibody, V domains shown, murine hybridoma antibody; its isotype control is IgG2B; also called mAb 77A) VH: QIQLVQSGPELKKPGETVKISCKASGYTFTNYGMNWVKQAPGKGLKWMGWINTYTGEPTYADDFKGRFAFSLETSATTAYLQINNLKNEDTATYFCARYDHAMDYWGQGTSVTVSS VL: DIVMSQSPSSLAVSAGEKVTMSCKSSQSLLNSGTRKNYLAWYQQKPGQSPKLLIYWTSTRESGVPDRFTGSGSGTDFTLTINSVQAEDLAVYYCKQSYTLYTFGGGTKLEIK")
67400
>>> testvalue("h77A-14 (antibody, V domains shown) VH: QVQLQQSGPEVKKPGASVKISCKTSGYTFTNYGMNWVRQAPGQGLEWMGWINTYTGEPTYADDFKGRVTMTTDTSTSTAYLELTGLMSDDTAVYFCARYDHAMDYWGQGTTVTVSS VL: DIQMTQSPSSLSASVGDRVTITCKSSQSLLNSGTRKNYLAWYQQKPGKVPKLLIYWTSTRESGVPSRFSGSGSGTDFTLTISSLQPEDVATYYCKQSYTLYTFGGGTKLEIK")
41100
>>> testvalue("h77A-22 (antibody, V domains shown) VH: QIQLVQSGPEVKKPGESVKVSCKASGYTFTNYGMNWVRQAPGKGLEWMGWINTYTGEPTYADDFKGRVTITRDTSASTAYMELSSLRSEDTAVYFCARYDHAMDYWGQGTSVTVSS VL: DIVMTQSPDSLSVSLGERATINCKSSQSLLNSGTRKNYLAWYQQKPGQPPRLLIYWTSTRESGVPDRFSGSGSGTDFTLTINTLQAEDVAVYYCKQSYTLYTFGQGTKLEIK")
36400
>>> testvalue("h77A-23 (antibody, V domains shown) VH: QIQLVQSGPEVKKPGESVKVSCKASGYTFTNYGMNWVRQAPGKGLEWMGWINTYTGEPTYADDFKGRVTITRDTSASTAYMELSSLRSEDTAVYFCARYDHAMDYWGQGTSVTVSS VL: DVVMTQSPDSLAVSLGERVTINCKSSQSLLNSGTRKNYLAWYQQKPGQSPKLLIYWTSTRESGVPDRFSGSGSGTDFTLTISSLQAEDVAVYYCKQSYTLYTFGQGTKLEIK")
49900
>>> testvalue("h77A-15 (antibody, V domains shown) VH: QVQLQQSGPEVKKPGASVKISCKTSGYTFTNYGMNWVRQAPGQGLEWMGWINTYTGEPTYADDFKGRVTMTTDTSTSTAYLELTGLMSDDTAVYFCARYDHAMDYWGQGTTVTVSS VL: DIVMTQSPDSLAVSLGERATINCKSSQSLLNSGTRKNYLAWYQQKPGQSPKLLIYWTSTRESGVPDRFSGSGSGTDFTLTISSLQAEDVAVYYCKQSYTLYTFGGGTKLEIK")
47600
>>> testvalue("chimeric 77A with a human IgG1 Fc domain (antibody, V domains shown, also called Chimera IgG1; IgG1 Chimera) VH: QIQLVQSGPELKKPGETVKISCKASGYTFTNYGMNWVKQAPGKGLKWMGWINTYTGEPTYADDFKGRFAFSLETSATTAYLQINNLKNEDTATYFCARYDHAMDYWGQGTSVTVSS VL: DIVMSQSPSSLAVSAGEKVTMSCKSSQSLLNSGTRKNYLAWYQQKPGQSPKLLIYWTSTRESGVPDRFTGSGSGTDFTLTINSVQAEDLAVYYCKQSYTLYTFGGGTKLEIK")
71600
>>> testvalue("h77A-12 (antibody, V domains shown) VH: QVQLQQSGPEVKKPGASVKISCKTSGYTFTNYGMNWVRQAPGQGLEWMGWINTYTGEPTYADDFKGRVTMTTDTSTSTAYLELTGLMSDDTAVYFCARYDHAMDYWGQGTTVTVSS VL: DIVMTQSPDSLSVSLGERATINCKSSQSLLNSGTRKNYLAWYQQKPGQPPRLLIYWTSTRESGVPDRFSGSGSGTDFTLTINTLQAEDVAVYYCKQSYTLYTFGQGTKLEIK")
44500
>>> testvalue("h77A-6 (antibody, V domains shown) VH: QIQLVQSGAEVKKPGSSVKVSCKASGYTFTNYGMNWVRQAPGQGLEWMGWINTYTGEPTYADDFKGRFTFTADESTSTAYMELSSLRSEDTAVYFCARYDHAMDYWGQGTLVTVSS VL: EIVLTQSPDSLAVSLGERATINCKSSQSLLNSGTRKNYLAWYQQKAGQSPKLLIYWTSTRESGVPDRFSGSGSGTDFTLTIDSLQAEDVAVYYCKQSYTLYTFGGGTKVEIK")
53100

Let's switch to this binder now.
Looking up h77A-16 (antibody, V domains shown) VH: EVQLVESGGGLVKPGGSLRLSCKASGYTFTNYGMNWVRQAPGKGLKWVGWINTYTGEPTYADDFKGRFTFSRDDSKNTLYLQMNSLKTEDTAVYFCARYDHAMDYWGQGTSVTVSS VL: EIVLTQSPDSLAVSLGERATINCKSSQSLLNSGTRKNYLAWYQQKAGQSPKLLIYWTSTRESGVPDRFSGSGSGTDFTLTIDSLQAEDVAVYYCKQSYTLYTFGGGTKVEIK , I found its kon recorded as 44000
